- targetUnderTest: T1, HIV-1YU2 gp120 (HIV-1 strain YU-2, UniProt P35961 32-498, limits assumed)
- T1 construct: domain: gp120
- assayExplanation: ELISA and SPR competition; gp120 binding to sCD4
pIC50: −log10 of the molar value. Where no end group is shown, it is not given here. [ ]: non-standard residue; d: D form.
measuredEndpoint: pIC50

[Q] Which value of pIC50 has been reported for [Azp‑triazole‑ferrocene]WSEAMM (also called PWSEAMM) [UM10] in the records?
[A] < 5.00
